measurement protocol: COS7 lysate on small-molecule microarray, probe aHis, 635 nm (AID 1123);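 also: z-score combines 667nm fluorescence intensity with signal-to-noise per printed compound spot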
run parameters: COS7 cell lysate, fluorescence, higher = more signal
Entries and their composite z-score
Number only, please.

CCCCCCc1nc(-c2ccc(-c3ccc(Cl)c(Cl)c3)o2)c(C)c2c1[Si](C(C)C)(C(C)C)OC2; 0.645
C=CC[C@]1(C(N)=O)N=C(c2ccc(OCCCO)cc2)O[C@H]1c1ccccc1; 0.916
CC1CC/C=C\[C@H]2OC34C=CCN(Cn5nnc6ccccc65)C(=O)[C@H]3N(CCCCCO)C(=O)[C@@H]4C2C(=O)O1 (some centres undefined); 0.737

Next item in the queue.
Q) composite z-score lookup needed for O=C1O[C@H](c2ccccc2)[C@H](c2ccccc2)N2[C@H]1[C@@H](C(=O)NC[C@H](O)c1ccccc1)[C@]1(C(=O)Nc3ccc(C#CC4=CCCCC4)cc31)[C@H]2c1ccccc1OCCO , thanks.
A) 1.32

---

measurement protocol: resazurin metabolic signal in A549 cells – cell-based, resazurin fluorescence, 24 h, PK04 Diversity Set, profiling panel (AID 1171); also: test concentration not given here
run parameters: A549 viability, higher = more signal, called active from +8 up or from −8 down
# if measured z-score < -0.9: yes  # else: no

Example results:
COc1ccc([Si](C)(C)[C@H]2[C@H](CCO)O[C@@]3(C(=O)N(Cc4ccccc4)c4ccc(N5CCCCC5=O)cc43)[C@@H]2C)cc1; yes
COC(=O)c1c2oc(c1C(=O)OC)C(=O)N[C@@H](C(C)C)Cn1cc(nn1)C1(CCCCC1)NC(=O)N[C@H](CO)CC2; no
CCCCCCc1nc(-c2ccc(-c3ccc(Cl)c(Cl)c3)o2)cc2c1[Si](C(C)C)(C(C)C)O[C@H]2c1ccccc1; no
COC(=O)[C@@]1(CCC(=O)OC(C)(C)C)N=C(c2ccc(OCCCO)cc2)O[C@H]1c1ccccc1; yes

Q) In plain terms, does CC(C)(C)OC(=O)CC[C@]1(C(N)=O)N=C(c2ccc(OCCCO)cc2)O[C@H]1c1ccccc1 come in under -0.9 for z-score?
A) no

Q) In plain terms, does COc1cc2c(cc1OC)CN(C(=O)[C@H]1[C@@H]3C(=O)O[C@@H](c4ccccc4)[C@@H](c4ccccc4)N3[C@@H](c3ccccc3OCCO)[C@]13C(=O)Nc1ccc(C#CCCO)cc13)CC2 come in under -0.9 for z-score?
A) no

---

measurement protocol: small molecules captured by biotinylated probe aFGF2 – biochemical, small-molecule microarray, fluorescence 635/667, stem cell growth factor project, primary screen (AID 1067);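 also: measures binding of biotinylated aFGF2 protein to printed compounds on slides; z-score merges feature fluorescence and signal-to-noise across triplicate slides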
run parameters: higher = more signal
Please note: TRUE applies when composite z-score is 0.002 or greater, and FALSE applies otherwise.

[N-]=[N+]=Nc1ccccc1C[C@@]1(C(=O)N2CCCCC2)N=C(c2ccc(OCCCO)cc2)O[C@@H]1c1ccccc1; TRUE
C[C@H]1C2[C@H](Cc3ccccc3)NC(=O)[C@]23C(=O)NCC(=O)N2CCC[C@H]2C(=O)NC/C=C/CCC/C=C/C3[C@@H]2O[C@]12C (stereo partly drawn); FALSE
CCOc1cc(C(O)C2C=CC3C(=O)N(c4ccccc4)C(=O)C3N2Nc2ccc(C(C)C)cc2)ccc1O (stereo not drawn); FALSE
CC(C)(C)OC(=O)CC[C@]1(C(N)=O)N=C(c2ccc(OCCCO)cc2)O[C@H]1c1ccccc1; TRUE
CC(=CC1CCCCC1)[C@@H](NC(=O)c1cccnc1)c1ccc(-c2ccccc2)cc1; TRUE

Q) Could you please find out whether CC(C)=CCCC(C)=CC(O)C1C=CC2C(=O)N(c3ccccc3)C(=O)C2N1Nc1ccc(C(C)C)cc1 (stereo not drawn) has composite z-score that meets 0.002 or exceeds it?
A) TRUE

Q) Could you please find out whether CCOC(=O)C1=C[C@@H](C(C)C)N(S(=O)(=O)c2ccc(C)cc2)[C@H]1c1ccccc1F has composite z-score that meets 0.002 or exceeds it?
A) FALSE

Q) Could you please find out whether CC1CC/C=C\[C@H]2OC34C=CCN(Cn5nnc6ccccc65)C(=O)[C@H]3N(CCCCCO)C(=O)[C@@H]4C2C(=O)O1 (stereo partly drawn) has composite z-score that meets 0.002 or exceeds it?
A) FALSE

---

Entries and their composite z-score
measurement protocol: COS7 lysate on small-molecule microarray, probe aHis, 635 nm (AID 1123);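 also: z-score combines 667nm fluorescence intensity with signal-to-noise per printed compound spot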
run parameters: COS7 cell lysate, fluorescence, higher = more signal
Number only, please.

Example entries begin here.
O=C1[C@H]2C=C(I)[C@H](C[C@@H]2OCCCCO)[C@@]12CO2; 0.141
O=C1NC(=O)C2C1C=CC(C(O)C=Cc1ccc([N+](=O)[O-])cc1)N2Nc1ccc(Cl)cc1Cl (stereo not drawn); 2.07

Q) composite z-score lookup needed for O=C(O)[C@H]1C[C@H]2C(=O)N3CCC[C@H]3C(=O)N2[C@H]1c1ccc(O)cc1 , thanks.
A) 0.193

Q) composite z-score lookup needed for CCOC(=O)C1=CCC(c2ccc(F)cc2)N(S(=O)(=O)c2ccc(C)cc2)C1 (stereo not drawn) , thanks.
A) 0.75

Q) composite z-score lookup needed for O=C1NC(=O)C2C1C=CC(C(O)c1ccc(I)cc1)N2Nc1ccc(Cl)cc1Cl (stereo not drawn) , thanks.
A) 1.61

Q) composite z-score lookup needed for O=C(NC1CC1)[C@@H]1c2ccccc2C(=O)N(C2Cc3ccccc3C2)[C@H]1c1ccc(CO)cc1 , thanks.
A) 1.41

Q) composite z-score lookup needed for O=C1C2C=CC(C(O)c3ccc(F)cc3)N(Nc3ccc([N+](=O)[O-])cc3)C2C(=O)N1c1ccccc1 (stereo not drawn) , thanks.
A) 2.76

Q) composite z-score lookup needed for C=CCOC(=O)[C@H]1[C@@H]2C(=O)O[C@@H](c3ccccc3)[C@@H](c3ccccc3)N2[C@@H](c2ccc(OCCOC(=O)[C@@H]3C[C@@H]4C(=O)N5CCC[C@H]5C(=O)N4[C@@H]3c3cccc(OCCO)c3)cc2)[C@]12C(=O)Nc1ccc(I)cc12 , thanks.
A) 1.15

---

measurement protocol: probe aWnt5a binding to arrayed compounds – biochemical, biotinylated probe, 635/667 nm fluorescence, primary screen (AID 1113);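 also: score merges 667 nm fluorescence intensity with signal-to-noise per printed feature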
run parameters: small-molecule microarray, higher = more signal
readout type: composite z-score
Number only, please.

C=CCN1C(=O)[C@]2(Cc3ccccc3)N=C(c3ccc(OCCCO)cc3)O[C@@H]2c2ccccc21; -0.0519

Q) composite z-score lookup needed for COCCOC(=O)N1C(=O)[C@@]2(c3cc(C#CC4(O)CCCCCC4)ccc31)[C@H](C(=O)Nc1nc3ccccc3s1)[C@H]1C(=O)O[C@H](c3ccccc3)[C@H](c3ccccc3)N1[C@@H]2c1ccccc1OCCO , thanks.
A) -0.0165

Q) composite z-score lookup needed for O=C(O)[C@H](Cc1ccccc1)n1cc(-c2ccccc2)nn1 , thanks.
A) -0.152

Q) composite z-score lookup needed for CCCCN1CC=CC23O[C@@H]4/C=C\CCCOC(=O)C4[C@H]2C(=O)N(CCCCCO)[C@@H]3C1=O (stereo partly specified) , thanks.
A) -0.172

Q) composite z-score lookup needed for COc1cc2c(cc1O)C(c1cccs1)N(Cc1cccc(OC(F)(F)F)c1)CC2 (stereo unspecified) , thanks.
A) -0.0545

Q) composite z-score lookup needed for C=C(/C(=C/C[C@H](OC(C)=O)c1ccc(OCCO)cc1)c1cc(C(=O)OC)ccc1OC)C(C)C , thanks.
A) -0.0721

---

target entity: Calmodulin-1 (Homo sapiens)
measurement protocol: small molecules binding calmodulin-1 with EGTA – biochemical, small-molecule microarray, Cy5-labelled CALM1, profiling panel (AID 1111);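 also: labelled calmodulin applied in Tris saline Tween buffer holding calcium plus EGTA and DTT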
run parameters: Cy5-CALM1 binding fluorescence, higher = more signal
Please note: true (1) applies when composite z-score is 0.02 or greater, and false (0) applies otherwise.

CCCNC(=O)[C@@]1(Sc2ccc(C)cc2)CC(=O)N(Cc2ccccc2C(F)(F)F)[C@@H]1c1ccc(CO)cc1I; false (0)

Q) Could you please find out whether COc1ccc([Si](C)(C)[C@H]2[C@H](CCO)O[C@@]3(C(=O)N(Cc4ccccc4)c4ccc(N5CCCCC5=O)cc43)[C@@H]2C)cc1 has composite z-score that meets 0.02 or exceeds it?
A) true (1)

Q) Could you please find out whether CC(c1ccccc1)C(O)C1C=CC2C(=O)N(C)C(=O)C2N1NC(=O)OC(C)(C)C (stereo unspecified) has composite z-score that meets 0.02 or exceeds it?
A) true (1)

Q) Could you please find out whether CC(C)CNC(=O)[C@@]1(Cc2ccccc2I)c2ccccc2C(=O)N(Cc2ccccc2C(F)(F)F)[C@H]1c1ccc(CO)cc1 has composite z-score that meets 0.02 or exceeds it?
A) false (0)

Q) Could you please find out whether CN1CCC(CCCO)=CC1c1cccs1 (stereo unspecified) has composite z-score that meets 0.02 or exceeds it?
A) false (0)

Q) Could you please find out whether C=CC[C@]1(C(=O)NCc2ccccc2)N=C(c2ccc(OCCCO)cc2)O[C@H]1c1ccccc1CN=[N+]=[N-] has composite z-score that meets 0.02 or exceeds it?
A) true (1)

Q) Could you please find out whether O=C(O)[C@H](Cc1ccccc1)n1cc(-c2ccccc2)nn1 has composite z-score that meets 0.02 or exceeds it?
A) true (1)

Q) Could you please find out whether COCCCNC(=O)[C@]1(Cc2ccccc2)N=C(c2ccc(OCCCO)cc2)O[C@@H]1c1ccccc1CN=[N+]=[N-] has composite z-score that meets 0.02 or exceeds it?
A) true (1)
